Target: RGS4
Experiment: FCPIA: Gαo binding to RGS4
Settings: FCPIA; listed as 11b; read-out: IC50 against RGS4
observation_type: pIC50
Conceptually, pIC50 converts a concentration in mol/L into minus its log10.

Qu. Return reported pIC50. Input molecule: `CCCCn1c(=O)sn(CC)c1=O`
Ans. 7.84

====

Biological target: RGS4 (Homo sapiens (Human), UniProt P49798)
Sequence (P49798 whole entry, looked up): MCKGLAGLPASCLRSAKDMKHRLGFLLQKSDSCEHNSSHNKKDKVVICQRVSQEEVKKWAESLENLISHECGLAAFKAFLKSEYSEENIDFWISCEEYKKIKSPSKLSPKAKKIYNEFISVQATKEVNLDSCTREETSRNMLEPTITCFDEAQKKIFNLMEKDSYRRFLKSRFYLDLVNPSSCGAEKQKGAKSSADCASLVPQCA
Test: FCPIA: Gαo binding to RGS4
Settings: Table 3, duplex FCPIA, average of two experiments
observation_type: IC50 (nM)
Only the number, expressed in nM, is required.

Qu. Return reported IC50. Input molecule: `Cc1ccc(-n2sc(=O)n(Cc3ccccc3)c2=O)cc1`
Ans. 14

Qu. Return reported IC50. Input molecule: `Cc1cccc(-n2sc(=O)n(Cc3ccccc3)c2=O)c1`
Ans. 38

Qu. Return reported IC50. Input molecule: `O=c1sn(-c2ccc(Cl)cc2)c(=O)n1Cc1ccc(F)cc1`
Ans. 14

Consider the additional molecule presented here.
Qu. Return reported IC50. Input molecule: `CCCCn1sc(=O)n(CC(C)C)c1=O`
Ans. 39

Source: patent US8865750B2
